Quick reference: EC50 of the listed items.
Tested on: PC-3 cells
Assay: Cell cycle analysis (PI staining, FACS), PC-3
Type: cell-based
Details: Homo sapiens, read-out: G2M phase arrest EC50
Please give a number only; it is taken to be in nM.

| CHEMICAL_STRUCTURE | VAL |
| --- | --- |
| COc1cc(-c2nccc3ccc(-c4ccc5[nH]ccc5c4)cc23)cc(OC)c1OC | 53.4 |

Consider the record given below.
Task: Endpoint output: EC50 of c1cc2ccc(-c3ccc4[nH]ccc4c3)cc2c(-c2ccc3[nH]ccc3c2)n1 . Value?
Output: 91.9

====

Quick reference: IC50 of the listed items.
Tested on: B16-F1 mouse melanoma cell line
Experiment: Cytotoxicity (SRB) assay, B16-F1
Format: cell-based
Details: Mus musculus, B16-F1, SRB assay, mouse melanoma B16-F1; read-out: IC50 B16-F1
Please give a number only; it is taken to be in nM.

Example entries begin here.
| MOLECULE | PROPERTY_NAME | VAL |
| --- | --- | --- |
| COc1cc(C(=O)c2csc(-c3ccc(CN)cc3)n2)cc(OC)c1OC.Cl [2r, hydrochloride] | IC50 | 38 |
| COc1cc(C(=O)c2cccc(-c3ccccc3)n2)cc(OC)c1OC | IC50 | 39 |
| COc1cc(C(=O)c2csc(-c3ccc(N(C)C)cc3)n2)cc(OC)c1OC | IC50 | 42 |

Consider the record given below.
Task: Request: IC50, test system B16-F1 mouse melanoma cell line, entry CC[C@]1(O)C[C@@H]2CN(CCc3c([nH]c4ccccc34)[C@@](C(=O)OC)(c3cc4c(cc3OC)N(C)[C@H]3[C@@](O)(C(=O)OC)[C@H](OC(C)=O)[C@]5(CC)C=CCN6CC[C@]43[C@@H]65)C2)C1 [vinblastine, Vinblastine, reference compound]
Output: 4.7
